Reported ΔTm at 12.5 µM values for a set of compounds
target: GAK (Homo sapiens, UniProt O14976); construct: catalytic domain-containing construct; experiment: biochemical; parameters: Thermal shift assay (DSF, SYPRO Orange), 2 uM kinase domain, mean delta Tm of triplicates versus DMSO; details: read-out: GAK
Sequence (O14976 whole entry, the tested form may be a part): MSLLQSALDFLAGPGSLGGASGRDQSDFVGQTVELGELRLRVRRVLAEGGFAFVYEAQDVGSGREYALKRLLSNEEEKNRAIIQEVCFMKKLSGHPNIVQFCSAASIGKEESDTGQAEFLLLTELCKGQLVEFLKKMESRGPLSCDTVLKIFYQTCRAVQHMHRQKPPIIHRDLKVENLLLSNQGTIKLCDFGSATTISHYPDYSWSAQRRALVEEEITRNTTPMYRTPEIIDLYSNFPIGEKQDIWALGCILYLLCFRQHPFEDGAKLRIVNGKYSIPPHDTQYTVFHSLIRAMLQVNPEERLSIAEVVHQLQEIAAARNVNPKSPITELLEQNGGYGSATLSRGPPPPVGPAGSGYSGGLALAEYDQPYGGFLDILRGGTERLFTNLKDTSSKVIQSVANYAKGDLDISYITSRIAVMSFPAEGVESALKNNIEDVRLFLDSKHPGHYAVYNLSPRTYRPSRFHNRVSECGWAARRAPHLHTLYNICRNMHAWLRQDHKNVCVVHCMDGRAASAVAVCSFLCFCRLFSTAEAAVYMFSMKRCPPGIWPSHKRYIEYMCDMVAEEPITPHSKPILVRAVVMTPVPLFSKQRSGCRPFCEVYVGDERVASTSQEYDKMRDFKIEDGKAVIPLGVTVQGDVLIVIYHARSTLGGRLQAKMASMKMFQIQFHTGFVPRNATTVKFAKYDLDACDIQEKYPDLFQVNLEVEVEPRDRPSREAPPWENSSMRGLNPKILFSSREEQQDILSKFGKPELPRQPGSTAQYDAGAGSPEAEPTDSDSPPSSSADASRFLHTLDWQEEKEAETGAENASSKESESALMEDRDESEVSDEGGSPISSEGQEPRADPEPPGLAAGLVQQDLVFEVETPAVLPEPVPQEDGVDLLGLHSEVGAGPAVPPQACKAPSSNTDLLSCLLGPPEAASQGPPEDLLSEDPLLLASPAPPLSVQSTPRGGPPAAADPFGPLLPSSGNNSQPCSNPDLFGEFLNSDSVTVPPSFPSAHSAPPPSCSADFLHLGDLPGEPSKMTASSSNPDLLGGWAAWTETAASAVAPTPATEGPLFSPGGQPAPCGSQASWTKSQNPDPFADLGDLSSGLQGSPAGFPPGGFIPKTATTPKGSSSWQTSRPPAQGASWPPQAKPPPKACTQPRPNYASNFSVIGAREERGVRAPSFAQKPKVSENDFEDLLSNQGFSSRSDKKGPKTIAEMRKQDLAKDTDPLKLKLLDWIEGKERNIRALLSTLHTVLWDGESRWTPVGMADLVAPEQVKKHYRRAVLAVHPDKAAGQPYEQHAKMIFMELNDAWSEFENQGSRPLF

>  <compound>
C[C@]1(O)C[C@@H](c2nc(-c3ccc4ccc(-c5ccccc5)nc4c3)c3c(N)nccn32)C1 [Linsitinib]

>  <ΔTm at 12.5 µM>
-0.6 °C

$$$$
>  <compound>
CN[C@@H]1C[C@H]2O[C@@](C)([C@@H]1OC)n1c3ccccc3c3c4c(c5c6ccccc6n2c5c31)C(=O)N[C@H]4O [UCN-01]

>  <ΔTm at 12.5 µM>
4.03 °C

$$$$
>  <compound>
C=CCn1c(=O)c2cnc(Nc3ccc(N4CCN(C)CC4)cc3)nc2n1-c1cccc(C(C)(C)O)n1 [MK-1775]

>  <ΔTm at 12.5 µM>
5.08 °C

$$$$
>  <compound>
CNC(=O)c1cc(Oc2ccc(NC(=O)Nc3ccc(Cl)c(C(F)(F)F)c3)cc2)ccn1 [Sorafenib]

>  <ΔTm at 12.5 µM>
5.42 °C

$$$$
>  <compound>
CCc1cc2c(cc1N1CCC(N3CCOCC3)CC1)C(C)(C)c1[nH]c3cc(C#N)ccc3c1C2=O [Alectinib]

>  <ΔTm at 12.5 µM>
6.7 °C

$$$$
>  <compound>
Cn1c(=O)c(F)c(Nc2ccc(I)cc2F)c2c(=O)n(C[C@@H](O)CO)cnc21 [TAK-733]

>  <ΔTm at 12.5 µM>
-0.183 °C

$$$$
>  <compound>
Cc1nc(Nc2n[nH]c3c2CN(C(=O)N[C@H](CN(C)C)c2ccccc2)C3(C)C)c2sccc2n1 [PF-03758309]

>  <ΔTm at 12.5 µM>
4.73 °C

$$$$
>  <compound>
CCS(=O)(=O)c1cccc(-c2cc(C(=O)NC3CCN(C)CC3)c(C)c3[nH]c4ncc(C)cc4c23)c1 [TAK-901]

>  <ΔTm at 12.5 µM>
3.35 °C

$$$$

* * *

Target: AAK1 (Homo sapiens, UniProt Q2M2I8)
Sequence (Q2M2I8 27-365 limits assumed): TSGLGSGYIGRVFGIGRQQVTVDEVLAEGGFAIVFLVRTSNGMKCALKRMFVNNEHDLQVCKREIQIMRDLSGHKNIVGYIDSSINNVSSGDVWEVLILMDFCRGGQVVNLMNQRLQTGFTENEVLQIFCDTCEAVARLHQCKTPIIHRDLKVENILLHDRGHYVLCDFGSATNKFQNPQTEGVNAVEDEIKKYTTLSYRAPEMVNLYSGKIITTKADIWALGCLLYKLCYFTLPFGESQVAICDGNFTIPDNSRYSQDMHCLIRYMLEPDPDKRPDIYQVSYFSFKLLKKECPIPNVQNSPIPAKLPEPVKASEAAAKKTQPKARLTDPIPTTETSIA
Experiment: biochemical
Set-up: kinase domain; Thermal shift assay (DSF, SYPRO Orange), 2 uM kinase domain, mean delta Tm of triplicates versus DMSO
Conditions: read-out: AAK1
Method: All measurements were performed in triplicate and mean values were reported for all compounds (Table S1). […] However, NAKs are often omitted from selectivity panels, including commercial screens.

>  <molecule>
Cc1nc(Nc2ncc(C(=O)Nc3c(C)cccc3Cl)s2)cc(N2CCN(CCO)CC2)n1

>  <ΔTm at 12.5 µM / °C>
0.363

$$$$
>  <molecule>
CC(C)(C)c1nc(-c2cccc(NS(=O)(=O)c3c(F)cccc3F)c2F)c(-c2ccnc(N)n2)s1

>  <ΔTm at 12.5 µM / °C>
2.23

$$$$
>  <molecule>
COc1cc(OC)c(/C=C/S(=O)(=O)Cc2ccc(OC)c(NCC(=O)O)c2)c(OC)c1

>  <ΔTm at 12.5 µM / °C>
0.19

$$$$
>  <molecule>
CC(C)NC[C@@H](C(=O)N1CCN(c2ncnc3c2[C@H](C)C[C@H]3O)CC1)c1ccc(Cl)cc1

>  <ΔTm at 12.5 µM / °C>
0.3

$$$$
>  <molecule>
Cn1cnc2c(F)c(Nc3ccc(Br)cc3Cl)c(C(=O)NOCCO)cc21

>  <ΔTm at 12.5 µM / °C>
0.343

$$$$
>  <molecule>
CC[C@@H]1C(=O)N(C)c2cnc(Nc3ccc(C(=O)N[C@H]4CC[C@H](N5CCN(CC6CC6)CC5)CC4)cc3OC)nc2N1C(C)C

>  <ΔTm at 12.5 µM / °C>
3.06

$$$$
>  <molecule>
N#CC1(c2ccc(NC(=O)c3cccnc3NCc3ccncc3)cc2)CCCC1

>  <ΔTm at 12.5 µM / °C>
0.223

$$$$
>  <molecule>
O=S(=O)(c1cccc2cnccc12)N1CCCNCC1

>  <ΔTm at 12.5 µM / °C>
3.27

$$$$
>  <molecule>
CNC(=O)c1cccc(-c2ccc3c(N4CCOC[C@@H]4C)nc(N4CCOC[C@@H]4C)nc3n2)c1

>  <ΔTm at 12.5 µM / °C>
0.373

$$$$
>  <molecule>
Cc1cnc(Nc2ccc(F)cc2Cl)nc1-c1c[nH]c(C(=O)N[C@H](CO)c2cccc(Cl)c2)c1 [VX-11E]

>  <ΔTm at 12.5 µM / °C>
-0.203

$$$$
>  <molecule>
Cc1c(NC(=O)OC[C@@H]2COCCN2)cn2ncnc(Nc3ccc4c(cnn4Cc4cccc(F)c4)c3)c12

>  <ΔTm at 12.5 µM / °C>
2.62

$$$$
